Test: physchem
Conditions: water
quantity.measured: solubility

compound	quantity.measured	recorded.value
CC(=O)O[C@H]1C(=O)[C@@]2(C)[C@H]([C@H](OC(=O)c3ccccc3)[C@]3(O)C[C@H](OC(=O)[C@H](O)[C@@H](NC(=O)c4ccccc4)c4ccccc4)C(C)=C1C3(C)C)[C@]1(OC(C)=O)CO[C@@H]1C[C@@H]2O [taxol, Taxol]	solubility	< 1.5 µM
